- target-or-test-system: UniProt:P61073
pIC50: −log10 of the molar value. Starred links: 1 amine or outer side, 2 acyl side, 3 side chain; linkers in the order of their positions; H or OH if unused. Non-standard residues stand in square brackets, D forms with d. Residues, ends and D or L forms follow the SMILES beside them. Groups on a side chain read outwards from the residue. *: point of attachment. dAla(N-(6-guanidinohexyl)) = C[C@@H](NCCCCCCNC(=N)N)C(=O)O; X1 = C[C@H](C(=O)[*:2])N(CCCCCCNC(=N)NCCCCCCN[*:3])[*:1]; Propanoyl(3-PO3H2) = O=C(CCP(=O)(O)O)*; 2Nal = N[C@@H](Cc1ccc2ccccc2c1)C(=O)O; Ahx = NCCCCCC(=O)O
measurement-kind: pIC50

Here are 2 molecules together with their reported answers.
molecule	target-or-test-system	pIC50
C[C@@H]1C(=O)N[C@@H](CCCNC(=N)N)C(=O)N[C@@H](Cc2ccc3ccccc3c2)C(=O)NCC(=O)N[C@H](Cc2ccc(O)cc2)C(=O)N1CCCCCCNC(=N)N [US20240293587, Compound R] (cyclo([dY][dAla(N-(6-guanidinohexyl))]R[2Nal]G))	UniProt:P61073	9.10
C[C@@H]1C(=O)N[C@@H](CCCNC(=N)N)C(=O)N[C@@H](Cc2ccc3ccccc3c2)C(=O)NCC(=O)N[C@H](Cc2ccc(O)cc2)C(=O)N1CCCCCCNC(=N)NCCCCCCNC(=O)CCCCCNC(=O)CCCCCNC(=O)CCP(=O)(O)O [US20240293587, Compound P5k] (cyclo([2Nal]G[dY][X1]([Ahx-Ahx-Propanoyl(3-PO3H2)])R))	UniProt:P61073	7.05

[P] CC(=O)NCCCCCNC(=N)NCCCCCCN1C(=O)[C@@H](Cc2ccc(O)cc2)NC(=O)CNC(=O)[C@H](Cc2ccc3ccccc3c2)NC(=O)[C@H](CCCNC(=N)N)NC(=O)[C@H]1C
[Q] C[C@@H]1C(=O)N[C@@H](CCCNC(=N)N)C(=O)N[C@@H](Cc2ccc3ccccc3c2)C(=O)N[C@H](CSCC(=O)NCc2cccc(CNC(=O)CN3CCN(CC(=O)O)CCN(CC(=O)O)CCN(CC(=O)O)CC3)c2)C(=O)N[C@H](Cc2ccc(O)cc2)C(=O)N1CCCCCCNC(=N)N
Between P and Q , whose recorded pIC50 is greater? # respond with the chosen item's label
P

----------
These compounds were tested on C-X-C chemokine receptor type 4 (Homo sapiens, UniProt P61073); pIC50 is the recorded read-out.
Sequence (P61073 whole entry): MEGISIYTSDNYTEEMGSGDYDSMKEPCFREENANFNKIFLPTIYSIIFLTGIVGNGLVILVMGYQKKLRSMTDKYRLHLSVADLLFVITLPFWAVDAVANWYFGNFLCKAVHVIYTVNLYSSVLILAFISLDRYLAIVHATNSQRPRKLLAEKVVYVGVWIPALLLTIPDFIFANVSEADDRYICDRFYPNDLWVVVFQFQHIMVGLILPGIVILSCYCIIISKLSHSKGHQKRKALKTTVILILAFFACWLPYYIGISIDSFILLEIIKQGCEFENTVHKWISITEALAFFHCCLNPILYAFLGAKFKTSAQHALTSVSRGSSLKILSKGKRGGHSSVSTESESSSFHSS
pIC50: −log10 of the molar value.
measurement-kind: pIC50

compound	pIC50
CC(=O)NCc1ccc(CNC(=O)CSC[C@H]2NC(=O)[C@H](Cc3ccc4ccccc4c3)NC(=O)[C@H](CCCNC(=N)N)NC(=O)[C@@H](C)N(CCCCCCNC(=N)N)C(=O)[C@@H](Cc3ccc(O)cc3)NC2=O)cc1	7.28

[A] C#CCCCCNC(=N)NCCCCCCN1C(=O)[C@@H](Cc2ccc(O)cc2)NC(=O)CNC(=O)[C@H](Cc2ccc3ccccc3c2)NC(=O)[C@H](CCCNC(=N)N)NC(=O)[C@H]1C
[B] C#CCCC(=O)NC(=N)NCCCCCCN1C(=O)[C@@H](Cc2ccc(O)cc2)NC(=O)CNC(=O)[C@H](Cc2ccc3ccccc3c2)NC(=O)[C@H](CCCNC(=N)N)NC(=O)[C@H]1C
[C] CC(=O)NCCCCCC(=O)NC(=N)NCCCCCCN1C(=O)[C@@H](Cc2ccc(O)cc2)NC(=O)CNC(=O)[C@H](Cc2ccc3ccccc3c2)NC(=O)[C@H](CCCNC(=N)N)NC(=O)[C@H]1C
[D] CC(=O)NCCCCCCNC(=N)NCCCCCCN1C(=O)[C@@H](Cc2ccc(O)cc2)NC(=O)CNC(=O)[C@H](Cc2ccc3ccccc3c2)NC(=O)[C@H](CCCNC(=N)N)NC(=O)[C@H]1C
Please give the order of these compounds when sorted by pIC50, largest value leading. Answer by naming the labels in the order asked.
B, A, D, C
